From: patent US4954509A

target: KAPPA opiate receptor (Cavia porcellus, UniProt P41144); construct: fresh guinea pig brain homogenate; from tissue; host or cells: guinea pig whole brain without cerebellum, fresh homogenate; experiment: opiate receptors binding, KAPPA (3H-Ethyl Ketocyclazocine, guinea pig brain homogenate)
Sequence (P41144 whole entry): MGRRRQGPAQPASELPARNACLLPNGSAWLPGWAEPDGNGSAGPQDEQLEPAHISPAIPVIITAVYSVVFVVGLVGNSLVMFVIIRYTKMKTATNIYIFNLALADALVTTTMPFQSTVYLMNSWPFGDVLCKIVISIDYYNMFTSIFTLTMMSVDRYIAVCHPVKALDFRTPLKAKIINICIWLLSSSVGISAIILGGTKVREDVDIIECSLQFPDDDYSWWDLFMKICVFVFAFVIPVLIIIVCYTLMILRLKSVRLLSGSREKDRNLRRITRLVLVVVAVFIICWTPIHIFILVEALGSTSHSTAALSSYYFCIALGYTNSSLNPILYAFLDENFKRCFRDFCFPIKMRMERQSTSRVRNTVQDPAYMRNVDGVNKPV
Counter-ions that a name gives are not always drawn.
# pKi per entry
Friendly reminder that pKi comes from taking -log10 of the concentration in mol/L.

Here are 2 compounds together with their reported answers.
{"compound": "O=C(Cc1ccc(Cl)c(Cl)c1)N1CCc2c(Cl)cccc2C1CN1CCCC1 (stereo not shown) [Example 7, hydrochloride]", "pKi": 7.36}
{"compound": "O=C(Cc1ccc(Cl)c(Cl)c1)N1CCc2cccc(Cl)c2C1CN1CCCC1 (stereo not shown)", "pKi": 8.26}

Entry under review: COc1cccc2c1CCN(C(=O)Cc1ccc(Cl)c(Cl)c1)C2CN1CCCC1 (stereo not shown) . Reported pKi?
8.40

Entry under review: O=C(Cc1ccc(Cl)c(Cl)c1)N1CCc2cc(O)ccc2C1CN1CCCC1 (stereo not shown) . Reported pKi?
8.81

---

molecular target: MU opiate receptor (Cavia porcellus, UniProt A0ACM8Q262); construct: 3H-DAGO displacement; assay: opiate receptors binding, MU (3H-DAGO, guinea pig brain homogenate); conditions: read-out: OPIATE RECEPTORS BINDING MU Ki, fresh guinea pig brain homogenate, 25° C., 40 min
Sequence (A0ACM8Q262 1-400): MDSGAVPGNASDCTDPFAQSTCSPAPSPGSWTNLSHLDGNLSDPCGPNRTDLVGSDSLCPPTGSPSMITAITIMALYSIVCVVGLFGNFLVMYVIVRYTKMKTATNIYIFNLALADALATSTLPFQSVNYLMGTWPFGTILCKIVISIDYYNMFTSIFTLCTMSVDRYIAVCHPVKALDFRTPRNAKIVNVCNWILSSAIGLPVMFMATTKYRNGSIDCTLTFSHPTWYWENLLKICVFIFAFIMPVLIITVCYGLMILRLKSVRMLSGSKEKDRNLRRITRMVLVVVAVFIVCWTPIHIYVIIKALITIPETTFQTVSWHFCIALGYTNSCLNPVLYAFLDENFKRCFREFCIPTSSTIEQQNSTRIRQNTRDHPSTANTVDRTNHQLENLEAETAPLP
Where a name gives a salt, the structure may show the parent alone.
# log10 of Ki per entry
Remember, log10 of Ki, in µM.

{"molecule": "O=C(Cc1ccc(Cl)c(Cl)c1)N1CCc2c(ccc(O)c2O)C1CN1CCCC1 (stereo not shown) [Example 40, hydrochloride]", "endpoint.name": "log10 of Ki", "numeric.readout": -1.31}
{"molecule": "O=C(Cc1ccc(Cl)c(Cl)c1)N1CCc2c(O)cccc2C1CN1CCCCC1 (stereo not shown) [Example 38, hydrochloride]", "endpoint.name": "log10 of Ki", "numeric.readout": -1.94}
{"molecule": "CC1CN(C(=O)Cc2ccc(Cl)c(Cl)c2)C(CN2CCCC2)c2ccccc21 (single isomer, unassigned)", "endpoint.name": "log10 of Ki", "numeric.readout": -1.25}
{"molecule": "C[C@@H]1CN(C(=O)Cc2ccc(Cl)c(Cl)c2)[C@@H](CN2CCCC2)c2ccccc21 (relative stereo)", "endpoint.name": "log10 of Ki", "numeric.readout": -0.91}
{"molecule": "C[C@H]1CN(C(=O)Cc2ccc(Cl)c(Cl)c2)[C@@H](CN2CCCC2)c2ccccc21 (relative stereo)", "endpoint.name": "log10 of Ki", "numeric.readout": 0.06}
{"molecule": "CC1Cc2ccccc2C(CN2CCCC2)N1C(=O)Cc1ccc(Cl)c(Cl)c1 (single isomer, unassigned)", "endpoint.name": "log10 of Ki", "numeric.readout": -1.95}

Please find the next molecule below.
Lab request: please report log10 of Ki under test system MU opiate receptor (Cavia porcellus, UniProt A0ACM8Q262) for CN(C)CC1c2cccc(O)c2CCN1C(=O)Cc1ccc(Cl)c(Cl)c1 (stereo not shown)
-2.44

---

target: MU opiate receptor (Cavia porcellus, UniProt A0ACM8Q262); construct: 3H-DAGO displacement; assay: opiate receptors binding, MU (3H-DAGO, guinea pig brain homogenate); conditions: fresh guinea pig brain homogenate, 25° C., 40 min, read-out: OPIATE RECEPTORS BINDING MU Ki
Counter-ions that a name gives are not always drawn.
Field 'label' (enum: Condition met / Condition not met). Set to Condition met when Ki is strictly under 300 nM; else Condition not met.

Solved cases below.
{"compound": "CSc1cccc2c1CCN(C(=O)Cc1ccc(Cl)c(Cl)c1)C2CN1CCCC1 (centres unmarked) [Example 32, hydrochloride]", "qualitative.label": "Condition not met"}
{"compound": "O=C(Cc1ccc(Cl)c(Cl)c1)N1CCc2c(Cl)cccc2C1CN1CCCC1 (centres unmarked) [Example 7, hydrochloride]", "qualitative.label": "Condition not met"}
{"compound": "COc1cccc2c1CCN(C(=O)Cc1ccc(C(F)(F)F)cc1)C2CN1CCCC1 (centres unmarked) [Example 33, hydrochloride]", "qualitative.label": "Condition met"}
{"compound": "COc1cccc2c1CCN(C(=O)Cc1ccc(Cl)c(Cl)c1)C2CN1CCCC1 (centres unmarked)", "qualitative.label": "Condition met"}
{"compound": "O=C(Cc1ccc(Cl)c(Cl)c1)N1CCc2cc(O)ccc2C1CN1CCCC1 (centres unmarked)", "qualitative.label": "Condition met"}

Lab note: next compound to report on.
is_below(Ki, 300 nM) for O=C(Cc1ccc(Cl)c(Cl)c1)N1CCc2cccc(Cl)c2C1CN1CCCC1 (centres unmarked) ?
Condition not met

---

molecular target: KAPPA opiate receptor (Cavia porcellus, UniProt P41144); construct: fresh guinea pig brain homogenate; from tissue; host or cells: guinea pig whole brain without cerebellum, fresh homogenate; experiment: opiate receptors binding, KAPPA (3H-Ethyl Ketocyclazocine, guinea pig brain homogenate); details: fresh guinea pig brain homogenate, 3H-Ethyl Ketocyclazocine with 100nM DAGO and 100nM DADLE, 25° C., 40 min; read-out: OPIATE RECEPTORS BINDING KAPPA Ki
# pKi per entry
Friendly reminder that pKi comes from taking -log10 of the concentration in mol/L.

Here are 5 compounds together with their reported answers.
{"compound": "C[C@H]1CN(C(=O)Cc2ccc(Cl)c(Cl)c2)[C@@H](CN2CCCC2)c2ccccc21 (relative stereo)", "pKi": 7.85}
{"compound": "O=C(Cc1ccc(Cl)c(Cl)c1)N1CCc2c(O)cccc2C1CN1CCCC1 (stereo not shown)", "pKi": 9.37}
{"compound": "CN(C)CC1c2cccc(O)c2CCN1C(=O)Cc1ccc(Cl)c(Cl)c1 (stereo not shown)", "pKi": 9.38}
{"compound": "C[C@@H]1CN(C(=O)Cc2ccc(Cl)c(Cl)c2)[C@@H](CN2CCCC2)c2ccccc21 (relative stereo)", "pKi": 8.32}
{"compound": "CC1Cc2ccccc2C(CN2CCCC2)N1C(=O)Cc1ccc(Cl)c(Cl)c1 (single isomer, unassigned)", "pKi": 8.65}

Please find the next compound below.
Entry under review: C[C@@H]1Cc2ccccc2[C@H](CN2CCCC2)N1C(=O)Cc1ccc(Cl)c(Cl)c1 (relative stereo) . Reported pKi?
8.58

---

# ED50 per entry
System: mice
Test: p-phenylquinone-induced abdominal writhing test in mice
Type: in vivo, mouse (male Charles River, Swiss Strain)
Conditions: Mus musculus, sc, 20 min; subcutaneous; calculated as the free base; 20 min pretreatment, p-phenylquinone 2 mg/Kg i.p.
Method: (A) P-phenylquinone-induced abdominal writhing test in mice The methodology employed is based on that described by Sigmund et al, Proc. Soc. Exptl. Biol. 95, 729/1957, modified by Milne and Twomey, Agents and Actions, 10, 31/1980. Male Charles River mice (Swiss Strain), 25-36g body weight, were used. […] During this period the number of abdominal writhing responses per animal were recorded where writhing consists of an intermittent contraction of the abdomen associated with hind leg extension. […]
Where a name gives a salt, the structure may show the parent alone.
Give your result in mg/kg as a bare value.

Here are 3 compounds together with their reported answers.
{"compound": "COc1cccc2c1CCN(C(=O)Cc1ccc(Cl)c(Cl)c1)C2CN1CCCC1 (stereo not shown) [Example 6]", "unit.abbreviation": "mg/kg", "ED50": 0.047}
{"compound": "CC1c2ccccc2C(CN2CCCC2)N(C(=O)Cc2ccc(Cl)c(Cl)c2)C1C (single isomer, unassigned; diastereoisomer b) [Example 46]", "unit.abbreviation": "mg/kg", "ED50": 0.011}
{"compound": "O=C(Cc1ccc(Cl)c(Cl)c1)N1CCc2c(O)cccc2C1CN1CCCC1 (single isomer, unassigned; (-)) [Example 54, hydrochloride]", "unit.abbreviation": "mg/kg", "ED50": 0.0022}

Please find the next compound below.
Entry under review: COc1cccc2c1CCN(C(=O)Cc1ccc(Cl)c(Cl)c1)C2CN1CCCCC1 (stereo not shown) [Example 36, hydrochloride] . Reported ED50?
0.163
